Where do these numbers come from? They come from ChEMBL document CHEMBL1140441.

# experimental-target: Glutamine synthetase (Escherichia coli K-12, UniProt P0A9C5)
# Sequence (P0A9C5 whole entry): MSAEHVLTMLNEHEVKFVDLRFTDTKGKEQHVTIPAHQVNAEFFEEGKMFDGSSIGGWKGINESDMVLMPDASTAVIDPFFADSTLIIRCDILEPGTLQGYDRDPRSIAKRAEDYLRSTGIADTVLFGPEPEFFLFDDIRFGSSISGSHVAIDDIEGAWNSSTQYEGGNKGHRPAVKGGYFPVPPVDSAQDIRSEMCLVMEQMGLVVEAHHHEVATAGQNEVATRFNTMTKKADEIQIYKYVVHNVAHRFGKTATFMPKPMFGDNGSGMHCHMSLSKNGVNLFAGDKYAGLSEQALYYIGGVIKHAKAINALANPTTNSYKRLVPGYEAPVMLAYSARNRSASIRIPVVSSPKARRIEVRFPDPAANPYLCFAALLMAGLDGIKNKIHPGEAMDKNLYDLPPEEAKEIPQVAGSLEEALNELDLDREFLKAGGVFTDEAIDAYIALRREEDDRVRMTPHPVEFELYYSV
Define the label as 1.0 when IC50 is strictly less than 30 µM and as 0.0 in all remaining cases.

| compound | qualitative-label |
| --- | --- |
| C[C@H](N)P(=O)(O)CC[C@H](N)C(=O)O (mixture of isomers) | 0.0 |
| NCP(=O)(O)CC[C@H](N)C(=O)O | 1.0 |
| NCCP(=O)(O)CC[C@H](N)C(=O)O | 0.0 |
| CP(=O)(O)CC[C@H](N)C(=O)O | 1.0 |
| N[C@@H](CCP(=O)(O)CCC(=O)O)C(=O)O | 0.0 |
| C[C@@H](N)P(=O)(O)CC[C@H](N)C(=O)O | 0.0 |
| N[C@@H](CCP(=O)(O)CO)C(=O)O | 1.0 |
